Experiment: gradient 5% acetonitrile 3 min, to 50% in 2 min, to 85% in 15 min, held 3 min, 100 µL/min
Conditions: column: Zorbax Extend-C18 2.1 x 50 mm; eluents: water / acetonitrile, 0.1% formic acid
RP-LC retention time vs 800 s: less than gives true (1); not less than gives false (0).

1) COc1ccc(N2CC(c3noc(-c4ccc(C)cc4)n3)CC2=O)cc1OC (centres undefined); false (0)

Next:
State whether 800 s exceeds RP-LC retention time recorded for `Cc1cccc(C(=O)NCCc2c[nH]c3ccc(C)cc23)c1` .
false (0)

----------
Assay: gradient 5% acetonitrile 3 min, to 50% in 2 min, to 85% in 15 min, held 3 min, 100 µL/min
Settings: column: Zorbax Extend-C18 2.1 x 50 mm; eluents: water / acetonitrile, 0.1% formic acid
Listing of recorded RP-LC retention time by entry.
Give the quantity in s, number only.

Some solved entries appear below for comparison.
1) CCOc1ccc(S(=O)(=O)N2CCC3(CCC(CN4CCN(C)CC4)O3)CC2)cc1 (centres undefined); 611
2) COCCOCc1nc(C2CCCN2S(=O)(=O)Cc2ccccc2)no1 (centres undefined); 748
3) CC1CCCN(CCCNC(=O)c2nc(CCS(=O)(=O)c3ccc(F)cc3)no2)C1 (centres undefined); 620
4) COc1ccc(OC)c(NC(=O)N2CCN(Cc3cn(C)c4ccccc34)CC2)c1; 664
5) O=C(NCc1cc(F)ccc1F)C1CCc2nc(N3CCCC3)ncc2C1 (centres undefined); 646

Report RP-LC retention time, nothing else, for this molecule: `O=C(CSc1nnc(NC(=O)c2c(F)cccc2Cl)s1)c1ccccc1`
888

Report RP-LC retention time, nothing else, for this molecule: `Cc1ccc2[nH]cc(CCNC(=O)CCC(=O)N3Cc4cccn4-c4ccccc43)c2c1`
868

Report RP-LC retention time, nothing else, for this molecule: `O=C(C1=CN(c2ccccc2F)c2cc(F)ccc2S1(=O)=O)N1CCOCC1`
740

Report RP-LC retention time, nothing else, for this molecule: `CCn1ccc2sc(C)c(C(=O)NCc3cc(OC)ccc3OC)c2c1=O`
716

Report RP-LC retention time, nothing else, for this molecule: `COc1ccc(NC(=O)c2c(C)oc3nc(C)nc(N4CCCC4)c23)cc1`
704

Report RP-LC retention time, nothing else, for this molecule: `CC(C)C(=O)N1CCc2c(c(C(=O)N3CCC(C(=O)NC4CCCCCC4)CC3)nn2C)C1`
698

Report RP-LC retention time, nothing else, for this molecule: `Cc1cc(N2CCOCC2)nc(N2CCN(S(=O)(=O)c3ccc(Br)cc3)CC2)n1`
718

Report RP-LC retention time, nothing else, for this molecule: CCC(C)C(NC(=O)c1ccc(C(F)(F)F)cc1)C(=O)Nc1nc2ccccc2[nH]1 (centres undefined)
847

Report RP-LC retention time, nothing else, for this molecule: `O=S(=O)(c1cc(-c2nnc(C3CCC3)o2)co1)N1CCN(c2ccccn2)CC1`
671
